# STUDY_SYSTEM: T1, HLA-A*02:01 class I complex (conditional p*HLA*02:01, biotinylated heavy chain with beta2-microglobulin) (human, biotinylated heavy chain)
# T1 construct: UV-labile peptide p* is cleaved and exchanged for the test peptide; also called HLA 2.1
# METHOD_DESCRIPTION: UV peptide exchange, HLA class I ELISA, % of Pos peptide;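 also: Streptavidin-captured HLA complexes after exchange detected via HRP anti-human B2M antibody, absorbance read, colour scales with intact complex, normalized to exchange control peptide as 100%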
PROPERTY: Exch II (%)
Just the number in %, nothing appended.

[
  {
    "BINDER": "SMTCTYFPI (also called M215) [TP53_S127F12 mimic peptide SMTCTYFPI]",
    "Exch II (%)": 22.7
  },
  {
    "BINDER": "IMNREIDFV (also called M092) [PIK3CA_G118D6 mimic peptide IMNREIDFV]",
    "Exch II (%)": 64.9
  },
  {
    "BINDER": "QLWVDSTPI (also called M181) [TP53_P152L3 mimic peptide QLWVDSTPI]",
    "Exch II (%)": 73.8
  }
]

Proceed to the following item.
input: What does the data say about its Exch II (%)? Entry: CYMYYYSYLL (also called M104) [PTEN.R173C3 mimic peptide CYMYYYSYLL]
output: 8.7

Data provenance: patent US20220194999A1
